System: Aβ42 secretion
Experiment: Primary in vitro screen, CHO-APP695NL,I,his cells, end-specific Aβ40 and Aβ42 ELISAs
Type: cell-based, Chinese hamster
Conditions: Cricetulus griseus, 6 h; 10 μM; six-hour culture supernatants; read-out: % Control % Aβ42
Procedure: Aβ40 and Aβ42 levels in culture supernatants were determined for each time points using ELISA. In a primary screen, the effects of NSAIDs on Aβ42 secretion by a CHO cell line that expressed APP(CHO-APP695NL,I,his) were examined. Duplicate cell cultures were treated with (a) a vehicle, (b) 10 μM of NSAID, or (c) 100 μM of NSAID. […]
Readout Kind: activity at 10 µM (%)

INSERT INTO assay_data (compound, system_under_test, readout_kind, assay_value) VALUES
  ('CS(=O)(=O)Nc1ccc([N+](=O)[O-])cc1OC1CCCCC1', 'Aβ42 secretion', 'activity at 10 µM', 132),
  ('Cc1cnc(NC(=O)C2=C(O)c3ccccc3S(=O)(=O)N2C)s1', 'Aβ42 secretion', 'activity at 10 µM', 158),
  ('O=C(c1ccccc1)c1ccc2n1CCC2C(=O)O (stereo not drawn)', 'Aβ42 secretion', 'activity at 10 µM', 142);
